Ref: PubChem BioAssay (EPA / NIEHS)

Read-out: Transforming growth factor beta 1 (TGFb1), TGFB1 (gene 7040)
MEASUREMENT DESCRIPTION: BSK_KF3CT_TGFb1: BioMAP Diversity Plus: KF3CT Assay for Transforming growth factor beta 1 (TGFb1) Biomarker Activity (AID 2283072)
CONDITIONS USED: primary human keratinocytes with fibroblasts; actives raise or lower the signal
Activity calls are given as the source filed them. Rule for the calls: active = hit-call score of the fitted dose curve at least 0.9, where 1 is the maximum; inactive = score below 0.9.
Reply using exactly one outcome from active, inactive

Record excerpt, results attached:
O=C(N[C@H]1CN2CCC1CC2)c1ccc2c(c1)OCCO2 = inactive
Cc1cc(C)cc(C)c1 = inactive
CC(C)(C)c1cc([N+](=O)[O-])cc(C(C)(C)C)c1O = inactive

Query: Record request — test call for Cc1ccccc1OP(=O)(Oc1ccccc1C)Oc1ccccc1C
Result: inactive

Query: Follow-up item: O=[N+]([O-])c1ccc(Nc2ccccc2)cc1
Result: inactive

Query: Follow-up item: c1ccc(-c2cccc(-c3ccccc3)c2)cc1
Result: inactive

Query: Follow-up item: N#Cc1cccnc1
Result: inactive

Query: Follow-up item: Cc1cc(Cl)ccc1OC(C)C(=O)O (stereo not drawn)
Result: inactive

Query: Follow-up item: CCC(C)(C#N)N=NC(C)(C#N)CC (stereo not drawn)
Result: inactive

Query: Follow-up item: O=S(=O)(C(Cl)(Cl)Cl)C(Cl)(Cl)Cl
Result: inactive

Query: Follow-up item: Cc1cccc(OP(=O)(Oc2cccc(C)c2)Oc2cccc(C)c2)c1
Result: inactive

Query: Follow-up item: O=C1C=CC(=O)c2ccccc21
Result: active

Query: Follow-up item: Oc1ccc(Cc2ccc(O)cc2)cc1
Result: inactive

Query: Follow-up item: COc1ccccc1N
Result: inactive

Query: Follow-up item: Nc1c(Oc2ccccc2)cc(O)c2c1C(=O)c1ccccc1C2=O
Result: inactive

Query: Follow-up item: CC(C)N(C(=O)CCl)c1ccccc1
Result: active

Query: Follow-up item: O=[N+]([O-])c1cccc2ccccc12
Result: inactive

Query: Follow-up item: CCOP(=O)(OCC)OC(=CCl)c1ccc(Cl)cc1Cl
Result: active

Query: Follow-up item: CCOC(=O)CCN(SN(C)C(=O)Oc1cccc2c1OC(C)(C)C2)C(C)C
Result: inactive

---

Read-out: Plasminogen activator inhibitor-1 (PAI1), SERPINE1 (gene 5054)
MEASUREMENT DESCRIPTION: BSK_hDFCGF_PAI1: BioMAP Diversity Plus: hDFCGF Assay for Plasminogen activator inhibitor-1 (PAI1) Biomarker Activity (AID 2283066)
CONDITIONS USED: primary human foreskin fibroblasts; actives raise or lower the signal
Activity calls are given as the source filed them. How the source made its calls: active means hit-call score of the fitted dose curve at least 0.9, where 1 is the maximum; inactive means score below 0.9.
Reply using exactly one outcome from T (active), F (inactive)

Record excerpt, results attached:
CCOC(=O)CC(=O)CCl = F
Oc1c(Cl)cc(Cl)cc1Cl = F
Nc1ccc(N)cc1 = F

Next, consider the following compound.
Query: Record request — test call for CC(C)(C)c1cc([N+](=O)[O-])cc(C(C)(C)C)c1O
Result: F

---

MEASUREMENT DESCRIPTION: ATG_AP_1_CIS: Attagene CIS-FACTORIAL HepG2 Assay for human Activator Protein 1 (AP-1) (AID 2282931)
CONDITIONS USED: HepG2 Attagene cis-factorial AP-1 reporter mRNA; actives raise or lower the signal
Activity calls are given as the source filed them. The calls were made as follows: active = hit-call score of the fitted dose curve at least 0.9, where 1 is the maximum; inactive = score below 0.9.
Reply using exactly one outcome from class 1 = active, class 0 = inactive

Record excerpt, results attached:
C=CCN=C=S = class 0
C=CC(F)(C(F)(F)F)C(F)(F)C(F)(F)F (stereo not drawn) = class 0
CC(=O)C(F)(F)C(F)(F)F = class 0
O=C(N[C@H]1CN2CCC1CC2)c1ccc2c(c1)OCCO2 = class 0
Fc1cccc(Cl)c1CCl = class 0

Query: Record request — test call for C=CC(=O)OCC(COC(=O)C=C)(COC(=O)C=C)COC(=O)C=C
Result: class 1

Query: Follow-up item: Cc1cc(Cl)ccc1OC(C)C(=O)O (stereo not drawn)
Result: class 0

Query: Follow-up item: O=C(Cc1ccccc1)OCCc1ccccc1
Result: class 0

Query: Follow-up item: Nc1nc(=S)[nH][nH]1
Result: class 0

Query: Follow-up item: Cc1cc(C(F)(C(F)(F)F)C(F)(F)F)ccc1NC(=O)c1cccc(I)c1C(=O)NC(C)(C)CS(C)(=O)=O
Result: class 0

Query: Follow-up item: CC(C)(c1ccccc1)c1cc(-n2nc3ccccc3n2)c(O)c(C(C)(C)c2ccccc2)c1
Result: class 0

Query: Follow-up item: Cc1c([N+](=O)[O-])c(C)c([N+](=O)[O-])c(C(C)(C)C)c1[N+](=O)[O-]
Result: class 0

Query: Follow-up item: O=NN1CCCCCCC1
Result: class 0

Query: Follow-up item: CCCCCCCCCCCCCCC(Br)C(=O)O (stereo not drawn)
Result: class 1

---

Read-out: DNA damage-inducible transcript 3 (DDIT3), DDIT3 (gene 1649)
MEASUREMENT DESCRIPTION: LTEA_HepaRG_DDIT3: Life Technologies and Expression Analysis (LTEA) Assay for DNA damage-inducible transcript 3 (DDIT3) using HepaRG (AID 2283488)
CONDITIONS USED: mRNA level, 48 h; actives raise or lower the signal
Activity calls are given as the source filed them. How the source made its calls: active means hit-call score of the fitted dose curve at least 0.9, where 1 is the maximum; inactive means score below 0.9.
Reply using exactly one outcome from true (1) (active), false (0) (inactive)

Record excerpt, results attached:
Clc1cccc(Cl)c1Cl = false (0)
Cc1cc(C)cc(C)c1 = false (0)
Clc1cccc(Cl)c1 = false (0)
Oc1c(Cl)cc(Cl)cc1Cl = false (0)
O=C(O)C1(c2ccc3c(c2)OC[C@H](Cc2ccc(-c4ccccc4)cc2)[C@H]3O)CCCC1 = true (1)

Query: Record request — test call for O=C(N[C@H]1CN2CCC1CC2)c1ccc2c(c1)OCCO2
Result: false (0)

Query: Follow-up item: COc1ccccc1N
Result: false (0)

Query: Follow-up item: N#Cc1cccnc1
Result: false (0)

---

Read-out: Matrix Metallopeptidase 1 (MMP1), MMP1 (gene 4312)
MEASUREMENT DESCRIPTION: BSK_hDFCGF_MMP1: BioMAP Diversity Plus: hDFCGF Assay for Matrix Metallopeptidase 1 (MMP1) Biomarker Activity (AID 2283064)
CONDITIONS USED: primary human foreskin fibroblasts; actives raise or lower the signal
Active and inactive are the calls of the source. Rule for the calls: active = hit-call score of the fitted dose curve at least 0.9, where 1 is the maximum; inactive = score below 0.9.
Reply using exactly one outcome from active, inactive

Record excerpt, results attached:
CCOC(=O)CCN(SN(C)C(=O)Oc1cccc2c1OC(C)(C)C2)C(C)C = inactive
N#Cc1cccnc1 = inactive
CCCCN(CCCC)C(=S)[S-].CCCCN(CCCC)C(=S)[S-].[Ni+2] = inactive
Cc1ccccc1OP(=O)(Oc1ccccc1)Oc1ccccc1 = active
N#CCCC(Br)(C#N)CBr (stereo not given) = active
c1ccc2sc(SNC3CCCCC3)nc2c1 = inactive
Cc1cc(C(C)(C)c2ccc(O)c(C)c2)ccc1O = inactive
CN(C)C(=S)S = active
Oc1cc(Cl)c(Cl)cc1Cl = inactive
CCOC(=O)C(SP(=S)(OC)OC)c1ccccc1 (stereo not given) = inactive

Query: Record request — test call for C=CC(Cl)CCl (stereo not given)
Result: inactive

Query: Follow-up item: CC(C)(C)c1cc([N+](=O)[O-])cc(C(C)(C)C)c1O
Result: inactive

Query: Follow-up item: OCCCCO
Result: inactive

---

MEASUREMENT DESCRIPTION: ATG_TGFb_CIS: Attagene CIS-FACTORIAL HepG2 Assay for human Transforming Growth Factor (TGF) (AID 2282967)
CONDITIONS USED: HepG2 Attagene CIS TGFb reporter, mRNA transcription; actives raise or lower the signal
Activity calls are given as the source filed them. How the source made its calls: active means hit-call score of the fitted dose curve at least 0.9, where 1 is the maximum; inactive means score below 0.9.
Reply using exactly one outcome from TRUE = active, FALSE = inactive

Record excerpt, results attached:
Cc1ccccc1OP(=O)(Oc1ccccc1C)Oc1ccccc1C = TRUE
O=[N+]([O-])c1ccc(Nc2ccccc2)cc1 = FALSE
CCOC(=O)OC1=C(c2cc(C)ccc2C)C(=O)NC12CCC(OC)CC2 (stereo not drawn) = FALSE
C=CCOC(N)=O = FALSE

Next, consider the following compound.
Query: Record request — test call for CCOP(=S)(OCC)OP(=S)(OCC)OCC
Result: FALSE

---

Read-out: Peroxisomal acyl-coenzyme A oxidase 1 (ACOX1) gene, ACOX1 (gene 51)
MEASUREMENT DESCRIPTION: LTEA_HepaRG_ACOX1: Life Technologies and Expression Analysis (LTEA) Assay for Peroxisomal acyl-coenzyme A oxidase 1 (ACOX1) gene using HepaRG (AID 2283467)
CONDITIONS USED: mRNA level, 48 h; actives raise or lower the signal
Calls of active or inactive are those of the source. Rule for the calls: active = hit-call score of the fitted dose curve at least 0.9, where 1 is the maximum; inactive = score below 0.9.
Reply using exactly one outcome from active, inactive

Record excerpt, results attached:
Clc1cccc(Cl)c1Cl = inactive
CC(C)(C)c1ccccc1O = inactive

Query: Record request — test call for CC(C)O.CC(C)O.OCCN(CCO)CCO.OCCN(CCO)CCO.[Ti]
Result: inactive
